Data origin: the supplement of paper PMC12455559

Reported PET hydrolysis is given for each of the following sequences.
Test: PET hydrolysis, aromatic products released after 48 h (umol product/mg enzyme); higher = more PET depolymerization activity
Conditions: substrate: cryPow; 60 °C; pH 5.5

chain-sequence | relation-qualifier | PET hydrolysis
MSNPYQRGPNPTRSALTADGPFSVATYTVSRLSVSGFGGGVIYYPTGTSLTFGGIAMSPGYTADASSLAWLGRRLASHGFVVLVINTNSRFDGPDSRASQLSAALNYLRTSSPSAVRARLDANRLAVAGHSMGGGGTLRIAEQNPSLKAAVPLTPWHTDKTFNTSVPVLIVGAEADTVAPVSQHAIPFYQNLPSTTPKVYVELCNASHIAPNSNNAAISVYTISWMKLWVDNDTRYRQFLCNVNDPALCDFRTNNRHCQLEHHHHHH [LCC-ICCG] | = | 121
ADNPYQRGPDPTPASVSANRGTFATAQISVPAGNGFGGGVIYHPTDTSQGTFGAIAVVPGYTATWAAEGAWMGHWLASFGFVVIGIDTNSRNDWDTARGTQLLAALDYLTQRSPVRDRVDANRTAVMGHSMGGGGAMHAALQRPSLKAAIGLAPFSPSQNLTTTRVPTMLLAGQSDTTTTPASILNLYNGIPAATEKAYLELTGAGHGFPTSNNPTMMRNVIPWLKIFVDSDTRYTQFLCSLSNWDGIRAYQSTCPLVPSPVPTTTSTTSTTTTISTTTTTPAPGDACSATYRTTNSWPGGYQAEVTVTAGNTAVNGWNVQWTLGSGQTVTQVWNGTLNVSGSTASVRNASYNGSLQANTSTTFGFIGGGTPPTSSLSCTSP [ESM035] | < | 3
